Ref: patent US20200338203A1

Tested on: T1, Mouse EphA2 (Ecto) (Mouse, UniProt Q03145 26-538)
T1 construct: extracellular domain; not shown: Fc fusion or C-terminal polyHis
T1 sequence (Q03145 26-538): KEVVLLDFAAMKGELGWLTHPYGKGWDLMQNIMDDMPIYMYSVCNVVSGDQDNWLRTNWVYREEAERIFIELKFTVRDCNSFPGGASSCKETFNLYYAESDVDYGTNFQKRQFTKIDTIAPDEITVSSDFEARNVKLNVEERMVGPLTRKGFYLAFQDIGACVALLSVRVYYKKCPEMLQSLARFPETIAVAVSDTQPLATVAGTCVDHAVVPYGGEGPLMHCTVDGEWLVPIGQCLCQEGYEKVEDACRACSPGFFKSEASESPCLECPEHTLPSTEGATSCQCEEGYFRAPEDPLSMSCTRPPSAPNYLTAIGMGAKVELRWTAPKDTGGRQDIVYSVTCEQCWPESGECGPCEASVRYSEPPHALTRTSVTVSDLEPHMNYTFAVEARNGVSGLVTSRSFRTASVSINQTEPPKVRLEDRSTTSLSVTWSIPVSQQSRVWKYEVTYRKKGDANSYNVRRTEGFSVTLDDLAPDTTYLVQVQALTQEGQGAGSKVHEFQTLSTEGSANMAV
Assay details: FP competition; competitor Compound 18
Procedure: Peptides without a fluorescent tag were tested in competition with a peptide with a fluorescent tag and a known Kd (Table 2). Peptides were diluted to an appropriate concentration in assay buffer as described in the direct binding assay with a maximum of 5% DMSO, then serially diluted 1 in 2. […] Measurements were conducted as for the direct binding assay, however the gain was determined prior to the first measurement.
Numbered stars: 1 amine (or outer) side, 2 acyl side, 3 side chain; on linkers, the order of the positions; unused ones are H or OH. Bridge positions count the residues as written; N and C are the ends. Square brackets hold non-standard residues; d marks the D form. Ends that are not written are not given here. 1Nal = N[C@@H](Cc1cccc2ccccc12)C(=O)O; TBMB = c1c(C[*:1])cc(C[*:3])cc1C[*:2]; Gly(cPent) = N[C@H](C(=O)O)C1CCCC1; Tle = CC(C)(C)[C@H](N)C(=O)O; Aib = CC(C)(N)C(=O)O; Sar = CNCC(=O)O
Measured parameter: Ki (nM)

Consider the worked cases shown below.
Binder: Ac-[Sar][Sar]A[dD][Gly(cPent)]VTCPWGPFWCPVNRPGC (linker 8-15-22 via TBMB) [Compound 163]
Ki [nM]: 1.74

Binder: Ac-[Sar][Sar]H[dD]VPCPWGPFWCPVNRPGC (linker 7-14-21 via TBMB) [Compound 225]
Ki [nM]: 2.08

[1] Ac-[Sar][Sar]A[dD]VTCPWGPFWCPVNRPGC (linker 7-14-21 via TBMB) [Compound 158]
[2] Ac-[Sar][Sar]H[dD]VPCP[1Nal]G[Aib]F[1Nal]CP[Tle]NR[Aib]GC (linker 7-14-21 via TBMB) [Compound 262]
Problem: Of the pair 1 and 2 , name the member with the lesser recorded Ki. Kindly state the label of the option you pick.
Result: 2
(2: 0.72 nM, 1: 2.2 nM)
